Test system: OVCAR-4 ovarian
protocol notes: NCI-60 one-dose screen, 48 h (100 = growth as untreated, 0 = no growth, -100 = all killed)
condition parameters: 10 µM unless noted
This is part of a sample that, as a whole, favours compounds with a hit. Of some 83,000 tested, about 20% had one in any assay.

[
  {
    "compound": "C[C@H](NC(=O)c1ccc2c(-c3ccc(C(F)(F)F)cc3)cccc2c1)c1ccccn1",
    "growth / %": 42
  },
  {
    "compound": "c1n[nH]cc1-c1nc2ccc3[nH]ncc3c2c2c1CC1(CC2)COC1",
    "growth / %": 89.7
  },
  {
    "compound": "CS(=O)(=O)Nc1cc(-c2ccc3ncnc(N4CCc5cc(F)c(Cl)cc54)c3c2)cnc1Cl",
    "growth / %": 10.6
  },
  {
    "compound": "COC(=O)c1cc(C(C)=O)n2c3ccccc3c3ccccc3c12",
    "growth / %": 44.3
  },
  {
    "compound": "CN1C(=O)/C(=C/c2ccco2)S/C1=N/c1nccs1",
    "growth / %": 97.8
  },
  {
    "compound": "CN(C)CCCNC(=S)Nc1ccc(/C=C/c2ccc(Cl)cc2)cc1",
    "growth / %": -68.2
  },
  {
    "compound": "O=C1/C(=C/C=C/c2ccco2)SC(=S)N1CC(=S)C1C=CS(=O)(=O)C1 (centres undefined)",
    "growth / %": 96.1
  },
  {
    "compound": "COc1cc(CNC(=O)C[C@H](C)CCC=C(C)C)ccc1OCc1cn(-c2ccccc2Cl)nn1",
    "growth / %": 33.3
  },
  {
    "compound": "Oc1ccc(Cl)c(Nc2ncnc3c2cnn3CC(Cl)c2ccc(Br)cc2)c1 (centres undefined)",
    "growth / %": 57.8
  },
  {
    "compound": "O=C1Nc2ccc(F)cc2/C1=C/C(=O)c1cc2ccccc2oc1=O",
    "growth / %": 89.1
  },
  {
    "compound": "COc1c2c(cc3c1C(CCc1ccccc1)N(C)CC3)OCO2 (centres undefined)",
    "growth / %": 29.2
  },
  {
    "compound": "COc1cc(C2CC(c3ccc(S(=O)(=O)NCCNc4nc(N(C)C)nc(N5CCOCC5)n4)cc3)=Nc3c(N)nc(N)nc3N2)cc(OC)c1OC (centres undefined)",
    "growth / %": 95.1
  },
  {
    "compound": "O=C(Cc1c(-c2ccccc2[N+](=O)[O-])n(-c2ncnc3c2c(-c2ccccc2)c(-c2ccccc2)n3Cc2ccccc2)[nH]c1=O)c1ccc(Cl)c(Cl)c1",
    "growth / %": 19.2
  },
  {
    "compound": "Cc1nn(-c2ccccc2)c2ncn(CC(=O)N/N=C/c3ccccc3O)c(=O)c12",
    "growth / %": 39.4
  },
  {
    "compound": "COc1cc(CNC(=O)[C@]23CCC(C)(C)CC2C2=CCC4[C@@]5(C)CCC(OC(C)=O)C(C)(C)C5CC[C@@]4(C)[C@]2(C)CC3)ccc1OCc1cn(-c2ccc(Cl)cc2Cl)nn1 (some centres undefined)",
    "growth / %": 102
  },
  {
    "compound": "O=c1c(-c2nc(-c3ccccc3)c(-c3ccccc3)[nH]2)coc2ccc(F)cc12",
    "growth / %": 47.3
  },
  {
    "compound": "COc1cncc(-c2ccc3ncnc(N4CCc5ccc(Cl)cc54)c3c2)c1",
    "growth / %": 32
  },
  {
    "compound": "COc1ccc(-c2cc(-c3cc(C(C)C)c(O)cc3C)nn2-c2ccc(S(N)(=O)=O)cc2)cc1",
    "growth / %": 64
  },
  {
    "compound": "O=C(Cn1c(/C=C/c2ccc([N+](=O)[O-])cc2)nc2ccccc2c1=O)Nc1ccccc1",
    "growth / %": 56.8
  }
]
